Source of measurements: PubChem BioAssay

# Measured on: Torsin-1A (Homo sapiens) (UniProt O14656)
# Sequence (O14656 whole entry, looked up): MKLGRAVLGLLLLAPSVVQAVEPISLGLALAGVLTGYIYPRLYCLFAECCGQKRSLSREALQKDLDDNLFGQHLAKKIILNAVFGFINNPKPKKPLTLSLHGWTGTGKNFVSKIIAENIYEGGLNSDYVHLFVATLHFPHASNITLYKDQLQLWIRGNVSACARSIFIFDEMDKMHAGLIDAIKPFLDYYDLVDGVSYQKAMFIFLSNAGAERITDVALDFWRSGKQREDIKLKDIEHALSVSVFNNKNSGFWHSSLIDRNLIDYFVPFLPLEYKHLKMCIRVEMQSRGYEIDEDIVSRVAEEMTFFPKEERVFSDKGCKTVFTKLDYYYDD
# Test: small-molecule binders of mutant TOR1A in lysate, primary screen, cell lysate, small-molecule microarray, COS7 lysate, 635/667 nm fluorescence (AID 1150);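 also: score pools 667 nm emission and signal to noise measuring lysate protein binding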
# Conditions: COS7 hTOR1A mutant lysate, 635 nm fluorescence, higher = more signal
# composite z-score per entry
Respond using a number only.

Use the examples below as a reference point.
{"Compound": "COc1ccc(CCNC(=O)[C@@]2(Cc3ccccc3I)c3ccccc3C(=O)N(Cc3ccccc3Cl)[C@H]2c2ccc(CO)cc2)cc1", "Measured on": "Torsin-1A (Homo sapiens) (UniProt O14656)", "Endpoint": "composite z-score", "Test result": 0.397}
{"Compound": "C=CCN1C(=O)[C@]2(O[C@H](CCO)[C@@H]([Si](C)(C)c3ccc(OC)cc3)[C@@H]2C)c2cc(N3C(=O)COc4ccccc43)ccc21", "Measured on": "Torsin-1A (Homo sapiens) (UniProt O14656)", "Endpoint": "composite z-score", "Test result": 0.072}
{"Compound": "C=C[C@@H](OC)[C@H](OC(=O)Nc1ccc(OC)cc1)c1ccc(OC)c(O)c1", "Measured on": "Torsin-1A (Homo sapiens) (UniProt O14656)", "Endpoint": "composite z-score", "Test result": -1.12}

## Input # return recorded composite z-score for entry CCOC(=O)C1=CCC(c2ccco2)N(S(=O)(=O)c2ccc(C)cc2)C1 (centres undefined)
## Output 1.24

## Input Fill in composite z-score for record COC(=O)[C@@]1(Cc2ccccc2CN=[N+]=[N-])N=C(c2ccc(OCCCO)cc2)O[C@H]1c1ccccc1
## Output 0.925

## Input Return composite z-score (reported value) for this compound: COC(=O)[C@@]1(Cc2ccc(F)cc2)[C@H]2c3cc(C(=O)N(C)C)n(Cc4c(CO)[nH]cc(C)c4=O)c3C[C@H]2CN1C(=O)c1ccccc1
## Output -0.134

## Input Please report the measured composite z-score for CC(C)CNC(=O)[C@@]1(c2ccc([N+](=O)[O-])cc2)CC(=O)N(C2CCCCC2)[C@@H]1c1ccc(CO)cc1
## Output 0.0881

## Input Quickly give me recorded composite z-score for O=C1OCC=C[C@H]2OC34C=CCN(c5ccc6ccccc6c5)C(=O)[C@H]3N(CCCCCO)C(=O)[C@@H]4[C@@H]12 (some centres undefined)
## Output -1.41

## Input Give reported composite z-score value for CC(C)C[C@@H]1NC(=O)[C@H]2C[C@@H](C(=O)NCCCCCN)[C@@H](c3cccc(OCCO)c3)N2C1=O
## Output 0.207

###

# Tested on: wheat germ agglutinin (Triticum aestivum), Alexa647-labelled
# Test: wheat germ agglutinin binders on compound microarrays, profiling panel, artefact control for SMM control-protein annotation, biochemical, small-molecule microarray, 635/667 nm fluorescence (AID 1140);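 also: score merges 667 nm feature emission with signal to noise over triplicate slides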
# Conditions: WGA-A647 binding, 635 nm fluorescence, higher = more signal
# binarize composite z-score: threshold 0.6 inclusive, high side criterion met, low side criterion not met

{"Compound": "COCCCNC(=O)[C@@]1(c2ccc([N+](=O)[O-])cc2)CC(=O)N(CC23CC4CC(CC(C4)C2)C3)[C@@H]1c1ccc(CO)cc1I", "Assigned label": "criterion not met"}
{"Compound": "CN1C=C(C(=O)OCCS(C)(=O)=O)C(C(=O)OCCS(C)(=O)=O)=CC(c2ccc(CO)cc2)=CC1c1cccs1 (configuration not stated)", "Assigned label": "criterion not met"}

## Input Determine whether measured composite z-score meets or exceeds 0.6 for CCCC=C(CCC)[C@@H](NC(=O)CCc1ccccc1)c1ccc(C(F)(F)F)cc1
## Output criterion met

## Input Tell me whether composite z-score is at least 0.6 here: C=CCC(OC(C)=O)[C@@H]1[C@@H](N(Cc2ccc(-c3ccccc3)cc2)C(=O)Cc2ccc(F)cc2)c2cc(OCCCO)ccc2N1C(=O)Cc1ccc2ccccc2c1 (some centres not stated)
## Output criterion not met

## Input Threshold query (composite z-score >= 0.6) on COCCOC(=O)N1C(=O)[C@@]2(c3ccccc31)[C@H](c1ccccc1OCCO)N1[C@H](c3ccccc3)[C@H](c3ccccc3)OC(=O)[C@H]1[C@@H]2C(N)=O
## Output criterion met

## Input Determine whether measured composite z-score meets or exceeds 0.6 for C=CCC(OC(C)=O)[C@@H]1[C@@H](N(Cc2cccc3ccccc23)C(=O)c2cccc3ccccc23)c2cc(OCCCO)ccc2N1C(=O)c1ccc2ccccc2c1 (some centres not stated)
## Output criterion not met

## Input Is it the case that O=c1cccc(-c2ccc(F)cc2)o1 has composite z-score reaching or exceeding 0.6?
## Output criterion met

## Input Determine whether this compound has composite z-score no lower than 0.6: CN(C)C(=O)[C@@]1(Cc2ccccc2)COC(c2ccc(OCCCO)cc2)=N1
## Output criterion not met

## Input Is reported composite z-score greater than or equal to 0.6 here: CC1(C)C(=O)C(c2ccccc2)=C2CN3C(=O)N(CCc4ccccc4)C(=O)C3(Cc3ccc(C(F)(F)F)cc3)C=C21 (configuration not stated)
## Output criterion not met
